B1: ATL3 (parent)
chain: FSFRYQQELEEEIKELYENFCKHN

variants of: B1; assay: protein stability index of a GFP-peptide fusion (GPS, HEK-293T) (PSI 1-6); higher = more stable; conditions: c terminus: a fixed tail appended;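 note: lentivirally expressed fusions sorted by FACS into six bins by GFP to DsRed ratio, PSI derived from sequencing read proportions per bin multiplied by bin number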
Label YES for high-side protein stability index (at or above 2) and NO for low-side protein stability index (below it).

>>> assigned_label("L9N")
"YES"
>>> assigned_label("N19S")
"YES"
>>> assigned_label("H23Y")
"YES"

API: above_or_equal(metric=protein stability index, cutoff=2) for item `C21P` YES

Decide: protein stability index of `L16N` >= 2? YES

Kindly determine if protein stability index recorded for `S2A` is above or exactly 2. YES
